target: RVFV-Gn head domain (Rift Valley fever virus, Clone 13, UniProt A2T080); test: ELISA; details: both partners purified
reported metric: binding result

binder	endpoint result
RV148 (VHH, source: S. cerevisiae, purified from the culture supernatant (IMAC, Ni-NTA)) VHH: QVQLQQSGGGLVQAGDSLRVSCAASGRTFSSYVLAWFRQAPGKEREFVAVVGWTGARKEYTDSVKGRFTISRDNAKNTVYLQMNSLKPEDTAVYYCAAGRYYIADGSLYDFWGQGTQVTVSS	binds
RV150 (VHH, also called VHH RV150; source: S. cerevisiae, purified from the culture supernatant (IMAC, Ni-NTA)) VHH: QVQLQESGGGLVQAGGSLRLSCAASGRTLSSYAMGWFRQAPGKEREFVGAISWSGPMLYYGDSAKGRFTISRDNAKNTVYLQMNTLKPEDTAVYYCAAANRLTAEGWQQGYNYDYWGQGTQVTVSS	binds

Measured values drawn from paper PMC7173960 for this set.
